# Tested on: SNB-75 CNS
# protocol_notes: NCI tumour cell line growth inhibition, 48 h
readout_name: TGI (µM)
Please state the figure in µM; there is no need to write the unit.

Below, 5 compounds whose answers are already recorded.
O=C1CC(=O)NC(=NN2C(=O)/C(=C/c3ccc(Cl)cc3)N=C2c2ccccc2)N1	60.2
Cn1c(=O)c(C(=O)NC23CC4CC(CC(C4)C2)C3)c(O)c2ccccc21	83.8
COC(=O)c1ccc2c(c1)C(=O)c1c-2n(CCCCl)c(=O)c2cc(OC)c(OC)cc12	91.6
CCCCCC(/C=C/[C@@H]1[C@@H](C(O)CCCCCC(=O)OC)C(=O)C[C@H]1O[Si](C)(C)C(C)(C)C)OCOCCOC (stereo partly specified)	22.2
Cc1ccc(O)cc1Nc1ccnc2cc(-c3ccccn3)ccc12	3.43

[Q] Quick check: TGI of `Cc1nn2c(-c3nc4cc(Cl)c(Cl)cc4[nH]3)c(-c3ccc(F)cc3)nc2s1` ?
[A] 3.71

[Q] # repeat for `COc1cc2c3c(n(CCCN4CCSCC4)c(=O)c2cc1OC)-c1cc2c(cc1C3=O)OCO2`
[A] 27.5

[Q] Cool, now `Cc1cc2c(cc1C)[n+](=O)c(C(=O)/C=C/c1ccccc1[N+](=O)[O-])c(C)n2[O-]`
[A] 41.1

[Q] Another: `NC(N)=N/N=C\c1c(-c2ccccc2)nc2sccn12`
[A] 24.8

[Q] What do you get for OC(c1cc(-c2ccc(Cl)cc2)nc2c(Cl)cccc12)C1CCCCN1 (stereo unspecified) ?
[A] 2.68
